# experimental-system: PDE10A (Homo sapiens (Human))
# Sequence (Q9Y233 whole entry, species assumed): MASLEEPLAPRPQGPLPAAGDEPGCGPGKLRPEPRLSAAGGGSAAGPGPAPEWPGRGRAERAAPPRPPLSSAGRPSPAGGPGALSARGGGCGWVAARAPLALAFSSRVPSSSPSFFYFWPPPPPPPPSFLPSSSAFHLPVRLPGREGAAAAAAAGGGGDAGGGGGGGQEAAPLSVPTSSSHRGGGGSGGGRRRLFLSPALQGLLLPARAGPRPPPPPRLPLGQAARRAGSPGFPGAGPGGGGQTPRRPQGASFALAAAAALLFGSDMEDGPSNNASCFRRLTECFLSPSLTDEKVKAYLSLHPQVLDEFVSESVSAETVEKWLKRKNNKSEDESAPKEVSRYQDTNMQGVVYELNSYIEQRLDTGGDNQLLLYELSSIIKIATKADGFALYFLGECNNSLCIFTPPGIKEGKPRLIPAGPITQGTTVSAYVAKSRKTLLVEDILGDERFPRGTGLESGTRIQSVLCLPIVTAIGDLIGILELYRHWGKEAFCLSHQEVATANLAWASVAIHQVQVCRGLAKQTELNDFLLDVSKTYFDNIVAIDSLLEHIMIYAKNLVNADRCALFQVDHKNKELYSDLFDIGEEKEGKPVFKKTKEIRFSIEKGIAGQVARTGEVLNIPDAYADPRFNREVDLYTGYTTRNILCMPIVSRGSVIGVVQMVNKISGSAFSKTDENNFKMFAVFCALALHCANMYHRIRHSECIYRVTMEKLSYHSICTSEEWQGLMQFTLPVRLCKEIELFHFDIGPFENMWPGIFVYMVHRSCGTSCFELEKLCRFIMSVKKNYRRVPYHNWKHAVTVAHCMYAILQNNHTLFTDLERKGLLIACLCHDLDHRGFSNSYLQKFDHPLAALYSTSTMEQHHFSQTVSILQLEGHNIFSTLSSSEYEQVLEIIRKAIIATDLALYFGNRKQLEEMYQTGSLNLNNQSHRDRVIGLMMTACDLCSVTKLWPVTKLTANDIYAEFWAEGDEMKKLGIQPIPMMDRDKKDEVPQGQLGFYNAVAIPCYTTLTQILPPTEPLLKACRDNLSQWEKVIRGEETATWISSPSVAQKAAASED
# protocol-description: Measurement of PDE activity (HTRF cAMP kit, recombinant PDE)
# details: recombinant PDE10, 20 nM cyclic nucleotide substrate, 60 minutes at 29 C
measurement-label: IC50

Guide cases for IC50, answers given:
Cn1cc(-c2ccncc2)c(-c2ccc(C#Cc3nccs3)cc2)n1.O=C(O)C(F)(F)F : 100 to 200 nM
Cc1cccnc1C#Cc1ccc(-c2nn(C)cc2-c2ccncc2)cc1 : < 100 nM

Continue with the next molecule.
Input: Provide IC50, recorded with PDE10A (Homo sapiens (Human)), of `Cn1cc(-c2ccncc2)c(-c2ccc(C#Cc3cnc4ccccc4n3)cc2)n1.O=C(O)C(F)(F)F`
Output: < 100 nM

Data credit: patent US9790203B2
